target: recombinant murine iNOS (Mus musculus, UniProt P29477); experiment: Irreversible inhibition kinetics; conditions: iNOS inactivation, Kitz and Wilson
Sequence (P29477 whole entry): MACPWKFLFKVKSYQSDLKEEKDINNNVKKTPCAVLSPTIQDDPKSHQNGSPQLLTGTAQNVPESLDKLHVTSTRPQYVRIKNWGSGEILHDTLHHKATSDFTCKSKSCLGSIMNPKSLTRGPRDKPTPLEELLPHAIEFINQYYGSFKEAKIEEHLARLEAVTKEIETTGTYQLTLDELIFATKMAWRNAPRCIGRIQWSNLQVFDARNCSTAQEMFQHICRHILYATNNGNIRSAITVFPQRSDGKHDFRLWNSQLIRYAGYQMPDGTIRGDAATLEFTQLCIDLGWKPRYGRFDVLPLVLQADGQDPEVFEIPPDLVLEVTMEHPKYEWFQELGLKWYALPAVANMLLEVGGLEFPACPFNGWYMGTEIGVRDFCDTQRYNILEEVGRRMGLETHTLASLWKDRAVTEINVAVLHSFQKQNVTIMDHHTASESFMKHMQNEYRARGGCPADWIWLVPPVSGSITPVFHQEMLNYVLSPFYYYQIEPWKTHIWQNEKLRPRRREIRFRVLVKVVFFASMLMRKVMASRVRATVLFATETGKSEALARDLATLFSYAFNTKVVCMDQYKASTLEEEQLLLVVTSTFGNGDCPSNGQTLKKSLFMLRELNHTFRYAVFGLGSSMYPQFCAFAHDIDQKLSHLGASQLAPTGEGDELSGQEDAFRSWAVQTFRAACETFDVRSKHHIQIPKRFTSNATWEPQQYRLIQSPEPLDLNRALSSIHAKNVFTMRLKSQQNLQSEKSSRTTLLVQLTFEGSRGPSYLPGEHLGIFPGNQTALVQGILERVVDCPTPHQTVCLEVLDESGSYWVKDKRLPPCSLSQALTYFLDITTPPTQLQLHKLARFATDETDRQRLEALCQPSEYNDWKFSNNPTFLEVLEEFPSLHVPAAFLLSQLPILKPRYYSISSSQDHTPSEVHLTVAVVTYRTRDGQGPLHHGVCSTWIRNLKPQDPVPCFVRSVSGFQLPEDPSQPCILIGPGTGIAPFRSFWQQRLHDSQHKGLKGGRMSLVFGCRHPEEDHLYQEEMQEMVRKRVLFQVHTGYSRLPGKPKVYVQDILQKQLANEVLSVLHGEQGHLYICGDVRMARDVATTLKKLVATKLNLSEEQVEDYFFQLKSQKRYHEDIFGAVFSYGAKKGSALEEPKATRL
EXPERIMENTAL_READOUT: Ki (µM)

I. CCCC(=N)NCCC[C@H](N)C(=O)O
II. CCC(=N)NCCC[C@H](N)C(=O)O
stdin: When I and II are compared, which has the higher number for Ki? When you have decided, please share the label of that item.
stdout: I
